Target: UniProtKB P06276
Sequence (P06276 29-602): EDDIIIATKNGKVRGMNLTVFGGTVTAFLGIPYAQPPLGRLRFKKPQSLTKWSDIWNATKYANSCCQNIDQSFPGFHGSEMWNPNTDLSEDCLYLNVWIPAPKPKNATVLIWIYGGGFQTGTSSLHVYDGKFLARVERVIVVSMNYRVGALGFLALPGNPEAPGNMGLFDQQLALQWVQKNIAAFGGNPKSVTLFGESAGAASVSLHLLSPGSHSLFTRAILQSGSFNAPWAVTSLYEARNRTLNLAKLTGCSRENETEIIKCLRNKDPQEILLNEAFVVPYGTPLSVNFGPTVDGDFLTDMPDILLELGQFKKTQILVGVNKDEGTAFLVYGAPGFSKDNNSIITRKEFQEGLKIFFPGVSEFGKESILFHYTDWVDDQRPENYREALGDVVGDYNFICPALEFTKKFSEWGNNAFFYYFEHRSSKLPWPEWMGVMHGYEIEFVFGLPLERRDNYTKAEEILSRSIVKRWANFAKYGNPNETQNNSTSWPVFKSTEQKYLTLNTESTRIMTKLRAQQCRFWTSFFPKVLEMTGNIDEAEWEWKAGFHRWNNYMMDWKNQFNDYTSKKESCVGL
Test: biochemical
Conditions: recombinant BChE, Ellman, 37 °C
observation-type: IC50

Entry COc1ccc2c3c1O[C@H]1C[C@@H](O)CC[C@@]31CCNC2 — recorded IC50 = > 100 µM

Value of IC50 reported for the compound COc1cc2c(c(O)c1OC)[C@@]13CC[C@H](O)C[C@@H]1N(CC3)C2O (stereo partly shown) is > 100 µM

Data point: COc1cc2c(cc1OC)[C@@]13C=C[C@@H](OC)C[C@@H]1N(C2)C[C@@H]3O ; IC50 = > 100 µM

get_value(item= COc1cc2c(cc1OC)[C@@H]1[C@H](O)[C@@H](OC)[C@H](O)C3=CCN(C2=O)[C@H]31 [Compound 2, 6-oxonarcissidine] , readout=IC50) returns > 100 µM

Lab note: measured IC50 of COc1cc2c(cc1OC)[C@@H]1[C@H](O)[C@@H](OC)[C@H](O)C3=CCN(C2)[C@H]31 [Compound 6, narcissidine] was > 100 µM

Note to self: IC50 recorded for CCO[C@H]1c2cc(OC)c(OC)c(O)c2[C@@]23CC[C@H](OC)C[C@@H]2N1CC3 was > 100 µM

Measured IC50, CCO[C@H]1c2cc(OC)c(OC)cc2[C@@]23CC[C@H](OC)C[C@@H]2N1CC3 : > 100 µM

* * *

Exercise: for every item that follows, state its recorded activity at 10 µM.
Tested on: SAOS-2 (osteosarcoma)
Experiment: WST-1 cell proliferation assay, cytotoxicity screening
Assay type: cell-based
Conditions: Homo sapiens, SAOS-2, 48 h, read-out: growth percent (GP) SAOS-2
Your reply should be a number followed by the unit it is expressed in.

Briefly, activity at 10 µM measured for CCO[C@H]1c2cc(OC)c(OC)cc2[C@@]23CC[C@H](OC)C[C@@H]2N1CC3 : 98%

The reported value for COc1cc2c(cc1O)CN1CC[C@@]23C=CC(O)C[C@H]13 (stereo partly shown) in terms of activity at 10 µM is 98%

Memo: COC1C=C[C@@]23CCN(Cc4cc5c(cc42)OCO5)[C@@H]3C1 (stereo partly shown) , reported activity at 10 µM: 76%

Looking up COc1ccc2c3c1O[C@H]1C[C@@H](O)CC[C@@]31CCNC2 , I see its activity at 10 µM listed as 97%

The compound COc1cc2c(cc1OC)[C@@]13CC[C@H](OC)C[C@@H]1N(CC3)C2O (stereo partly shown) showed activity at 10 µM equal to 77%

Reported activity at 10 µM of CO[C@@H]1C=C[C@@]23c4cc5c(cc4[C@H](O)N(C[C@@H]2O)[C@H]3C1)OCO5 : 35%

Notebook: COc1cc2c(cc1OC)[C@@H]1[C@H](O)[C@@H](O)C=C3CCN(C2)[C@H]31 , activity at 10 µM read as 98%

Per the records, this compound ( COc1ccc2c3c1O[C@H]1C[C@@H](O)CC[C@@]31CCN(C)C2 ) has activity at 10 µM equal to 97%

Recorded activity at 10 µM (compound COc1cc2c(c(O)c1OC)[C@@]13CC[C@H](O)C[C@@H]1N(CC3)C2O (stereo partly shown) ): 111%

Item: COc1cc2c(c(O)c1OC)[C@@]13CC[C@H](OC)C[C@@H]1N(CC3)C2O (stereo partly shown) | activity at 10 µM: 73%

For CO[C@@H]1C=C[C@@]23c4cc5c(cc4CN(C[C@@H]2O)[C@H]3C1)OCO5 the compound record lists activity at 10 µM as 34%

CCO[C@H]1c2cc(OC)c(OC)c(O)c2[C@@]23CC[C@H](OC)C[C@@H]2N1CC3 has a reported activity at 10 µM of 99%

activity at 10 µM reading for COc1cc(-c2cccc3c2N(C)CC3)c(CN2CC[C@@]34C=C[C@H](O)C[C@@H]3Oc3c(OC)ccc(c34)C2)c(OC)c1OC : 106%

Recorded values, source paper PMC11443518.
